Test system: P388
measurement protocol: Antitumor activity against mouse P388 cells allografted in mouse assessed as increase of median life span at 200 mg/kg, ip on day 1, 5 and 9 measured up to 60 days relative to control
Type: functional
applied conditions: route intraperitoneal
One threshold, 40%, splits the recorded ILS at 200 mg/kg values: lower ones are yes (1), equal or higher ones are no (0).

>>> print(df.to_string())
                                smiles_code  system  answer_label
0  CCN(CC)CCNc1ccc(NCCN(CC)CC)c2c1C(=O)c1c(O)ccc(O)c1C2=O    P388        no (0)
1  CN(C)CCCCNc1ccc(NCCCCN(C)C)c2c1C(=O)c1c(O)ccc(O)c1C2=O    P388       yes (1)
2  O=C1c2ccccc2C(=O)c2c(NCCN3CCCCC3)ccc(NCCN3CCCCC3)c21    P388       yes (1)
3  CN(C)CCNc1ccc(NCCN(C)C)c2c1C(=O)c1cc(Cl)c(Cl)cc1C2=O    P388       yes (1)
4  CN(C)CCCCCNc1ccc(NCCCCCN(C)C)c2c1C(=O)c1ccccc1C2=O    P388       yes (1)
5  O=C1c2c(O)ccc(O)c2C(=O)c2c(NCCNCCN3CCOCC3)ccc(NCCNCCN3CCOCC3)c21    P388        no (0)
6  CN(CCNc1ccc(NCCN(C)c2ccccc2)c2c1C(=O)c1c(O)ccc(O)c1C2=O)c1ccccc1    P388       yes (1)
7  CN(C)CCCCCNc1ccc(NCCCCCN(C)C)c2c1C(=O)c1c(O)ccc(O)c1C2=O    P388       yes (1)
8  CCCCN(CCCC)CCNc1ccc(NCCN(CCCC)CCCC)c2c1C(=O)c1c(O)ccc(O)c1C2=O    P388       yes (1)

Data provenance: ChEMBL document CHEMBL3244336
